B1: Cold shock protein CspB, P41016 (parent)
chain: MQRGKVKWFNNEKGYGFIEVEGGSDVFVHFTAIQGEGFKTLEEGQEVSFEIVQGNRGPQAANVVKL

variants of: B1; conditions: Bacillus caldolyticus; pH 7; 70 °C; Thermal; CD; Sodium cacodylate-HCl 0.1 M; NaCl 2 M; reversible: yes; structure 1C9O; whole UniProt chain shown
// map ddG of mutation (higher = less stable) to label using low class: < -0.2 kcal/mol; middle class: ≥ -0.2 kcal/mol and < 0.2 kcal/mol; high class: ≥ 0.2 kcal/mol

Completed entries (count: 3):
Would you mind sorting `Y15F` into the appropriate category?
middle class

Would you mind sorting `Q2L` into the appropriate category?
low class

Would you mind sorting `Q53E` into the appropriate category?
middle class

More entries:
Would you mind sorting `S24D` into the appropriate category?
middle class

Would you mind sorting `G23Q` into the appropriate category?
high class

Would you mind sorting `E46A` into the appropriate category?
middle class
